Reference source for all entries: ChEMBL document CHEMBL3045802

test system: RXF 393; assay: Cytotoxicity against Homo sapiens (human) RXF393 cells assessed as growth inhibition at 10 uM after 48 hr by coulter counter analysis; type: functional; conditions: RXF 393, 48 h, read-out: GI
Reported Metric: inhibition of growth at 10 µM

COc1ccc(C2C3=C(CCCC3)Nc3ncn4nc(-c5ccccc5)nc4c32)cc1OC (centres undefined): 19.9%
COc1ccc(C2C3=C(CCCC3)Nc3nc(-c4ccccc4)[nH]c(=O)c32)cc1OC (centres undefined): 14.4%
Oc1ccc(-c2nc3c4c(ncn3n2)NC2=C(CCCC2)C4c2ccc(Cl)cc2)cc1 (centres undefined): < 10%
CN(C)c1ccc(-c2nc3c(c(=O)[nH]2)C(c2ccc(Cl)cc2)C2=C(CCCC2)N3)cc1 (centres undefined): < 10%
O=c1[nH]nnc2c1C(c1ccc(Cl)cc1)C1=C(CCCC1)N2 (centres undefined): < 10%
COc1ccc(-c2nc3c(c(=O)[nH]2)C(c2ccc(OC)c(OC)c2)C2=C(CCCC2)N3)cc1OC (centres undefined): 10.3%
COc1ccc(C2C3=C(CCCC3)Nc3nc(-c4ccc(N(C)C)cc4)[nH]c(=O)c32)cc1OC (centres undefined): < 10%
N#CCc1nc2c(c(=O)[nH]1)C(c1ccc(Cl)cc1)C1=C(CCCC1)N2 (centres undefined): < 10%
Clc1ccc(C2C3=C(CCCC3)Nc3ncn4nc(-c5ccccc5)nc4c32)cc1 (centres undefined): < 10%

----------
system: HOP-62; test: Cytotoxicity against Homo sapiens (human) HOP62 cells assessed as growth inhibition at 10 uM after 48 hr by coulter counter analysis; type: functional; details: HOP-62, 48 h, read-out: GI
Reported Metric: inhibition of growth at 10 µM (%)

COc1ccc(-c2nc3c(c(=O)[nH]2)C(c2ccc(OC)c(OC)c2)C2=C(CCCC2)N3)cc1OC (stereo not given): 12.3
COc1ccc(C2C3=C(CCCC3)Nc3nc(-c4ccccc4)[nH]c(=O)c32)cc1OC (stereo not given): 15.7
COc1ccc(C2C3=C(CCCC3)Nc3[nH]c(=S)nc(NC(N)=S)c32)cc1OC (stereo not given): 25.4
N#CCc1nc2c(c(=O)[nH]1)C(c1ccc(Cl)cc1)C1=C(CCCC1)N2 (stereo not given): 12.5
COc1ccc(-c2nc3c(c(=O)[nH]2)C(c2ccc(Cl)cc2)C2=C(CCCC2)N3)cc1OC (stereo not given): 10.2
COc1ccc(C2C3=C(CCCC3)Nc3nn[nH]c(=O)c32)cc1OC (stereo not given): 15.7

----------
system: NCI-H226; experiment: Cytotoxicity against Homo sapiens (human) NCI-H226 cells assessed as growth inhibition at 10 uM after 48 hr by coulter counter analysis; assay type: functional; details: NCI-H226, 48 h, read-out: GI
Reported inhibition of growth at 10 µM values follow for various compounds
Reported Metric: inhibition of growth at 10 µM (%)

COc1ccc(C2C3=C(CCCC3)Nc3nn[nH]c(=O)c32)cc1OC (stereo unspecified): 15.9
COc1ccc(C2C3=C(CCCC3)Nc3ncn4nc(-c5ccc(O)cc5)nc4c32)cc1OC (stereo unspecified): 15.3
COc1ccc(C2C3=C(CCCC3)Nc3[nH]c(=S)nc(NC(N)=S)c32)cc1OC (stereo unspecified): 18.6
COc1ccc(C2C3=C(CCCC3)Nc3ncn4nc(-c5ccccc5)nc4c32)cc1OC (stereo unspecified): 19.6
COc1ccc(C2C3=C(CCCC3)Nc3nc(CC#N)[nH]c(=O)c32)cc1OC (stereo unspecified): 11.3

----------
Reported inhibition of growth at 10 µM values follow for various compounds
test system: SR; experiment: Cytotoxicity against Homo sapiens (human) SR cells assessed as growth inhibition at 10 uM after 48 hr by coulter counter analysis; format: functional; conditions: read-out: GI
Reported Metric: inhibition of growth at 10 µM

O=c1[nH]nnc2c1C(c1ccc(Cl)cc1)C1=C(CCCC1)N2 (centres undefined): < 10%
COc1ccc(C2C3=C(CCCC3)Nc3nn[nH]c(=O)c32)cc1OC (centres undefined): < 10%
COc1ccc(-c2nc3c(c(=O)[nH]2)C(c2ccc(OC)c(OC)c2)C2=C(CCCC2)N3)cc1OC (centres undefined): 21.4%
Oc1ccc(-c2nc3c4c(ncn3n2)NC2=C(CCCC2)C4c2ccc(Cl)cc2)cc1 (centres undefined): < 10%
CN(C)c1ccc(-c2nc3c(c(=O)[nH]2)C(c2ccc(Cl)cc2)C2=C(CCCC2)N3)cc1 (centres undefined): < 10%
O=c1[nH]c(-c2ccccc2)nc2c1C(c1ccc(Cl)cc1)C1=C(CCCC1)N2 (centres undefined): < 10%
COc1ccc(C2C3=C(CCCC3)Nc3nc(-c4ccc(N(C)C)cc4)[nH]c(=O)c32)cc1OC (centres undefined): < 10%
COc1ccc(C2C3=C(CCCC3)Nc3[nH]c(=S)nc(NC(N)=S)c32)cc1OC (centres undefined): 40.6%
COc1ccc(C2C3=C(CCCC3)Nc3nc(CC#N)[nH]c(=O)c32)cc1OC (centres undefined): < 10%

----------
system: SN12C; assay: Cytotoxicity against Homo sapiens (human) SN12C cells assessed as growth inhibition at 10 uM after 48 hr by coulter counter analysis; type: functional; settings: read-out: GI
Reported Metric: inhibition of growth at 10 µM

O=c1[nH]c(-c2ccccc2)nc2c1C(c1ccc(Cl)cc1)C1=C(CCCC1)N2 (stereo not given): < 10%
COc1ccc(C2C3=C(CCCC3)Nc3[nH]c(=S)nc(NC(N)=S)c32)cc1OC (stereo not given): < 10%
Clc1ccc(C2C3=C(CCCC3)Nc3ncn4nc(-c5ccccc5)nc4c32)cc1 (stereo not given): < 10%
COc1ccc(C2C3=C(CCCC3)Nc3nc(CC#N)[nH]c(=O)c32)cc1OC (stereo not given): < 10%
N#CCc1nc2c(c(=O)[nH]1)C(c1ccc(Cl)cc1)C1=C(CCCC1)N2 (stereo not given): 15.5%

----------
system: UACC-62; assay: Cytotoxicity against Homo sapiens (human) UACC62 cells assessed as growth inhibition at 10 uM after 48 hr by coulter counter analysis; format: functional; details: UACC-62, 48 h, read-out: GI
Reported Metric: inhibition of growth at 10 µM (%)

COc1ccc(C2C3=C(CCCC3)Nc3nn[nH]c(=O)c32)cc1OC (stereo not given): 14.3
Oc1ccc(-c2nc3c4c(ncn3n2)NC2=C(CCCC2)C4c2ccc(Cl)cc2)cc1 (stereo not given): 17.4
COc1ccc(C2C3=C(CCCC3)Nc3nc(-c4ccccc4)[nH]c(=O)c32)cc1OC (stereo not given): 14.4
Clc1ccc(C2C3=C(CCCC3)Nc3ncn4nc(-c5ccccc5)nc4c32)cc1 (stereo not given): 13.4

----------
system: SK-MEL-5; test: Cytotoxicity against Homo sapiens (human) SK-MEL-5 cells assessed as growth inhibition at 10 uM after 48 hr by coulter counter analysis; format: functional; conditions: SK-MEL-5, 48 h, read-out: GI
Reported Metric: inhibition of growth at 10 µM (%)

COc1ccc(-c2nc3c(c(=O)[nH]2)C(c2ccc(Cl)cc2)C2=C(CCCC2)N3)cc1OC (stereo not given): 13
COc1ccc(C2C3=C(CCCC3)Nc3nn[nH]c(=O)c32)cc1OC (stereo not given): 10.9
COc1ccc(C2C3=C(CCCC3)Nc3ncn4nc(-c5ccc(O)cc5)nc4c32)cc1OC (stereo not given): 23.2
COc1ccc(C2C3=C(CCCC3)Nc3nc(-c4ccccc4)[nH]c(=O)c32)cc1OC (stereo not given): 10.9

----------
system: CAKI-1; assay: Cytotoxicity against Homo sapiens (human) Caki1 cells assessed as growth inhibition at 10 uM after 48 hr by coulter counter analysis; format: functional; settings: CAKI-1, 48 h, read-out: GI
Reported Metric: inhibition of growth at 10 µM (%)

COc1ccc(C2C3=C(CCCC3)Nc3nn[nH]c(=O)c32)cc1OC (stereo not given): 23.4
COc1ccc(C2C3=C(CCCC3)Nc3[nH]c(=S)nc(NC(N)=S)c32)cc1OC (stereo not given): 10
COc1ccc(C2C3=C(CCCC3)Nc3ncn4nc(-c5ccccc5)nc4c32)cc1OC (stereo not given): 13.1
COc1ccc(C2C3=C(CCCC3)Nc3nc(-c4ccccc4)[nH]c(=O)c32)cc1OC (stereo not given): 23.4
O=c1[nH]nnc2c1C(c1ccc(Cl)cc1)C1=C(CCCC1)N2 (stereo not given): 16.1
Oc1ccc(-c2nc3c4c(ncn3n2)NC2=C(CCCC2)C4c2ccc(Cl)cc2)cc1 (stereo not given): 24.6
Clc1ccc(C2C3=C(CCCC3)Nc3ncn4nc(-c5ccccc5)nc4c32)cc1 (stereo not given): 12.4
COc1ccc(C2C3=C(CCCC3)Nc3nc(-c4ccc(N(C)C)cc4)[nH]c(=O)c32)cc1OC (stereo not given): 10.5
COc1ccc(-c2nc3c(c(=O)[nH]2)C(c2ccc(OC)c(OC)c2)C2=C(CCCC2)N3)cc1OC (stereo not given): 13.5
